Recorded values, source patent US6956040B2.

system: MRSA 33; assay: MIC, agar incorporation method; type: cell-based, Staphylococcus aureus; conditions: MRSA 33; agar incorporation
# Lookup of reported MIC keyed by entry

smiles string	tested target	result
CC(=O)NC[C@H]1CN(c2ccc(N3CCN(Cc4ccc([N+](=O)[O-])o4)CC3)c(F)c2)C(=O)O1.O=C(O)CC(O)(CC(=O)O)C(=O)O	MRSA 33	2 µg/mL
CC(=O)NC[C@H]1CN(c2ccc(N3C[C@@H]4[C@@H](CN(C)Cc5ccc([N+](=O)[O-])s5)[C@@H]4C3)c(F)c2)C(=O)O1	MRSA 33	4 µg/mL
CC(=O)NC[C@H]1CN(c2ccc(N3CCN(Cc4ccc(C=O)o4)CC3)c(F)c2)C(=O)O1	MRSA 33	2 µg/mL
CC(=O)NC[C@H]1CN(c2ccc(N3CCN(Cc4ccc(C=NN)o4)CC3)c(F)c2)C(=O)O1	MRSA 33	2 µg/mL
CC(=O)NC[C@H]1CN(c2ccc(N3CCN(Cc4ccc([N+](=O)[O-])o4)CC3)c(F)c2)C(=O)O1.Cl	MRSA 33	4 µg/mL
CC(=O)NC[C@H]1CN(c2ccc(N3C[C@@H]4[C@H](C3)[C@H]4N(C)Cc3ccc([N+](=O)[O-])s3)c(F)c2)C(=O)O1	MRSA 33	1 µg/mL
CC(=O)NC[C@H]1CN(c2ccc(N3CCN(C(=O)c4ccc([N+](=O)[O-])s4)CC3)c(F)c2)C(=O)O1.Cl	MRSA 33	<0.1 µg/mL
CC(=O)NC[C@H]1CN(c2ccc(N3CCN(C(=O)c4ccco4)CC3)c(F)c2)C(=O)O1	MRSA 33	4 µg/mL
CC(=O)NC[C@H]1CN(c2ccc(N3CCN(C(=O)c4ccoc4)CC3)c(F)c2)C(=O)O1	MRSA 33	1 µg/mL
CC(=O)NC[C@H]1CN(c2ccc(N3CCC(N(C)Cc4ccc([N+](=O)[O-])s4)CC3)c(F)c2)C(=O)O1	MRSA 33	1 µg/mL

Exercise: Which MIC value is on record for `COC(=O)Cc1ccc(NC(=O)ON=Cc2ccc(CN3CCN(c4ccc(N5C[C@H](CNC(C)=O)OC5=O)cc4F)CC3)o2)cc1` ?
Solution: 8 µg/mL

Exercise: Entry under review: `CC(=O)NC[C@H]1CN(c2ccc(N3CCN(Cc4cccn4C)CC3)c(F)c2)C(=O)O1` . Reported MIC?
Solution: 8 µg/mL
